experiment: Oral pharmacokinetics (plasma, brain, CSF); assay type: in vivo; conditions: Sprague Dawley, rat, plasma, po, 10 mg/kg, Sprague Dawley rats, per os
Entries annotated with measured AUC(0-t)
Numbers only; they are read as ng·h/mL.

[[record]]
compound = "CC(=O)N1C(C(=O)N[C@H](C(N)=O)[C@@H](C)O)CCC12CNC2=O (stereo partly shown)"
reported_result = 1320

[[record]]
compound = "C[C@@H](O)[C@H](NC(=O)C1CCC2(CNC2=O)N1)C(N)=O (single isomer, unassigned)"
reported_result = 350

[[record]]
compound = "CC(C)C(=O)N1C2(CCC13CNC3=O)CNC2=O (single isomer, unassigned)"
reported_result = 2570

[[record]]
compound = "CC(C)(C)OC(=O)N1C(C(N)=O)CCC12CN(OCc1ccccc1)C2=O (single isomer, unassigned)"
reported_result = 614


Query: Requested read-out: AUC(0-t). Entry: CC(C)C(=O)N1C(C(=O)N[C@H](C(N)=O)[C@@H](C)O)CCC12CNC2=O (single isomer, unassigned)
Response: 367

Query: Subsequent entry: C[C@@H](O)[C@@H](C(N)=O)N1CC2(CCC3(CN([C@H](C(N)=O)[C@@H](C)O)C3=O)N2C(=O)OC(C)(C)C)C1=O (stereo partly shown)
Response: 486

Query: Subsequent entry: C[C@@H](O)[C@H](NC(=O)C1CCC2(CNC2=O)N1Cc1ccccc1)C(N)=O (single isomer, unassigned)
Response: 97.6

----------
experiment: IV pharmacokinetics; assay type: in vivo; settings: Sprague Dawley, rat, in vivo, iv, 2 mg/kg, Sprague Dawley rats, normal saline
test.readout: AUC(0-t)
Write the numeric value and follow it with the unit.

Reference set (6 entries):
[[record]]
molecule = "C[C@@H](O)[C@H](NC(=O)C1CCC2(CNC2=O)N1Cc1ccccc1)C(N)=O (single isomer, unassigned) [AM]"
reported_result = "1000 ng·h/mL"

[[record]]
molecule = "CC(=O)N1C(C(=O)N[C@H](C(N)=O)[C@@H](C)O)CCC12CNC2=O (stereo partly shown) [AO]"
reported_result = "4430 ng·h/mL"

[[record]]
molecule = "CC(C)C(=O)N1C2(CCC13CNC3=O)CNC2=O (single isomer, unassigned) [AH]"
reported_result = "3020 ng·h/mL"

[[record]]
molecule = "CC(C)C(=O)N1C(C(=O)N[C@H](C(N)=O)[C@@H](C)O)CCC12CNC2=O (single isomer, unassigned) [AS]"
reported_result = "2800 ng·h/mL"

[[record]]
molecule = "C[C@@H](O)[C@@H](C(N)=O)N1CC2(CCC3(CN([C@H](C(N)=O)[C@@H](C)O)C3=O)N2C(=O)OC(C)(C)C)C1=O (stereo partly shown) [BY]"
reported_result = "5960 ng·h/mL"

[[record]]
molecule = "C[C@@H](O)[C@H](NC(=O)C1CCC2(CNC2=O)N1)C(N)=O (single isomer, unassigned) [AQ-1]"
reported_result = "3330 ng·h/mL"


Please look at the following molecule next.
Query: Requested read-out: AUC(0-t). Entry: CC(C)(C)OC(=O)N1C(C(N)=O)CCC12CN(OCc1ccccc1)C2=O (single isomer, unassigned) [BH]
Response: 656 ng·h/mL

----------
biological target: NMDAR2B expressing HEK cell membranes (Homo sapiens, UniProt Q13224); construct: expressed in transfected cells; host or cells: HEK cells (membrane extract); assay: NMDAR agonist assay, [3H]MK-801 binding, NMDAR2B; format: biochemical; conditions: 50 μM glutamate; relative to 1 mM glycine
Sequence (Q13224 27-1484, other chains not shown): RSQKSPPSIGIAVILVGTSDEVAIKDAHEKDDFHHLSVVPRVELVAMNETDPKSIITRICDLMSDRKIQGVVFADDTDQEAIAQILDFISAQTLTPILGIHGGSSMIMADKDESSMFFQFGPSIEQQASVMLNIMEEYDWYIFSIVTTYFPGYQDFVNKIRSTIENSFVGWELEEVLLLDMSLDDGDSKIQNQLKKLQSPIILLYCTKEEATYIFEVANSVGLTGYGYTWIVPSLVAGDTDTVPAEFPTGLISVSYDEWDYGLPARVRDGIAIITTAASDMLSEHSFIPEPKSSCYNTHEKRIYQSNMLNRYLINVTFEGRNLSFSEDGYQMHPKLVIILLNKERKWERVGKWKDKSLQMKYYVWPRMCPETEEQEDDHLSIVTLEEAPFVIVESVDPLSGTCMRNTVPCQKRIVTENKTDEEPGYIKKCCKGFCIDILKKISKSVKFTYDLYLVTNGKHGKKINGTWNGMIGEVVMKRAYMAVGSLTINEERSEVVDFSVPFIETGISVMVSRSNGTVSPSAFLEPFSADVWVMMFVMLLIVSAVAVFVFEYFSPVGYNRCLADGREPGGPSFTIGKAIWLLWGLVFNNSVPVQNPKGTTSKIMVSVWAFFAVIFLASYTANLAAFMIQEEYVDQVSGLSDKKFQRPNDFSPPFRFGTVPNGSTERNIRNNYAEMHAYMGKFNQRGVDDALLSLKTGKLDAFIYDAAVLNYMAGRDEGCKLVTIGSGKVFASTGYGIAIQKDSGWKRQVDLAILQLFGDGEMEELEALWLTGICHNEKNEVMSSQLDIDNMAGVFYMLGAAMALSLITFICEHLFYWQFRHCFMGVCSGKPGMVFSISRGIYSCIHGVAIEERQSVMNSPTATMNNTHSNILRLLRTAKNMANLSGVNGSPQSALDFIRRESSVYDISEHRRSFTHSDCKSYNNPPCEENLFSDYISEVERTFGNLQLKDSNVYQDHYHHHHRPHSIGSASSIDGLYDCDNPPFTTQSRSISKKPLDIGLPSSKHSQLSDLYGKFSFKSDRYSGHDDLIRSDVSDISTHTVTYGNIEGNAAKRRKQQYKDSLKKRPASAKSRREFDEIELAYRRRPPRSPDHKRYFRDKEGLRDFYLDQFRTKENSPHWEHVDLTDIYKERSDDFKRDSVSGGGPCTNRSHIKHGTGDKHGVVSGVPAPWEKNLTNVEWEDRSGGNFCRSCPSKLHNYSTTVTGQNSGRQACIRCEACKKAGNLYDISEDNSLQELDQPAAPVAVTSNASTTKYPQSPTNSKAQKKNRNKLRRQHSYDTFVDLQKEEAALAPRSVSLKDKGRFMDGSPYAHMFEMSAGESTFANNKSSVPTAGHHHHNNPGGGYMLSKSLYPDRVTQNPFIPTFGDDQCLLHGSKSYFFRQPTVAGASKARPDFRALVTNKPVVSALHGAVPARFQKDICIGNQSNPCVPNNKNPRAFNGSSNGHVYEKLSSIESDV
test.readout: NMDAR2B: % maximal [3H]MK-801 binding relative to 1 mM glycine

Reference set (8 entries):
[[record]]
molecule = "C[C@@H](O)[C@H](NC(=O)C1CCC2(CNC2=O)N1Cc1ccccc1)C(N)=O (single isomer, unassigned) [AL-2]"
reported_result = "− (−=0)"

[[record]]
molecule = "CN1C2(CCC13CNC3=O)CNC2=O (single isomer, unassigned) [AB-1]"
reported_result = "− (−=0)"

[[record]]
molecule = "CC(C)C(=O)N1C2(CCC13CNC3=O)CNC2=O (single isomer, unassigned) [AH]"
reported_result = "+ (<100%=+)"

[[record]]
molecule = "CC(O)C(C(N)=O)N(C)CC1CCC2(CN(OCc3ccccc3)C2=O)N1 (single isomer, unassigned)"
reported_result = "+ (<100%=+)"

[[record]]
molecule = "O=C1NCC12CN(Cc1ccc(F)cc1)C1(CNC1=O)C2 (single isomer, unassigned) [DL]"
reported_result = "+ (<100%=+)"

[[record]]
molecule = "O=C1NCC12CN(Cc1ccc(F)cc1)C1(CNC1=O)C2 (single isomer, unassigned) [DN]"
reported_result = "+ (<100%=+)"

[[record]]
molecule = "C[C@@H](O)[C@H](NCC1CCC2(CNC2=O)N1C(=O)OC(C)(C)C)C(=O)N(C)C (single isomer, unassigned) [BT]"
reported_result = "− (−=0)"

[[record]]
molecule = "CC(O)C(NCC1CCC2(CN(OCc3ccccc3)C2=O)N1)C(N)=O (single isomer, unassigned)"
reported_result = "+ (<100%=+)"


Query: Fill in the recorded NMDAR2B: % maximal [3H]MK-801 binding relative to 1 mM glycine for this molecule, with NMDAR2B expressing HEK cell membranes (Homo sapiens, UniProt Q13224) as test system: O=C1NCC12CCC1(CNC1=O)N2 (single isomer, unassigned) [AK]
Response: − (−=0)

Query: Subsequent entry: CC(C)(C)OC(=O)N1C2(CCC13CNC3=O)CNC2=O (single isomer, unassigned) [AA-3]
Response: − (−=0)

----------
Target: NMDAR2C expressing HEK cell membranes (Homo sapiens, UniProt Q05586+Q14957)
Construct: expressed in transfected cells; host or cells: HEK cells (membrane extract)
Sequence (Q14957 20-1233, other chains not shown): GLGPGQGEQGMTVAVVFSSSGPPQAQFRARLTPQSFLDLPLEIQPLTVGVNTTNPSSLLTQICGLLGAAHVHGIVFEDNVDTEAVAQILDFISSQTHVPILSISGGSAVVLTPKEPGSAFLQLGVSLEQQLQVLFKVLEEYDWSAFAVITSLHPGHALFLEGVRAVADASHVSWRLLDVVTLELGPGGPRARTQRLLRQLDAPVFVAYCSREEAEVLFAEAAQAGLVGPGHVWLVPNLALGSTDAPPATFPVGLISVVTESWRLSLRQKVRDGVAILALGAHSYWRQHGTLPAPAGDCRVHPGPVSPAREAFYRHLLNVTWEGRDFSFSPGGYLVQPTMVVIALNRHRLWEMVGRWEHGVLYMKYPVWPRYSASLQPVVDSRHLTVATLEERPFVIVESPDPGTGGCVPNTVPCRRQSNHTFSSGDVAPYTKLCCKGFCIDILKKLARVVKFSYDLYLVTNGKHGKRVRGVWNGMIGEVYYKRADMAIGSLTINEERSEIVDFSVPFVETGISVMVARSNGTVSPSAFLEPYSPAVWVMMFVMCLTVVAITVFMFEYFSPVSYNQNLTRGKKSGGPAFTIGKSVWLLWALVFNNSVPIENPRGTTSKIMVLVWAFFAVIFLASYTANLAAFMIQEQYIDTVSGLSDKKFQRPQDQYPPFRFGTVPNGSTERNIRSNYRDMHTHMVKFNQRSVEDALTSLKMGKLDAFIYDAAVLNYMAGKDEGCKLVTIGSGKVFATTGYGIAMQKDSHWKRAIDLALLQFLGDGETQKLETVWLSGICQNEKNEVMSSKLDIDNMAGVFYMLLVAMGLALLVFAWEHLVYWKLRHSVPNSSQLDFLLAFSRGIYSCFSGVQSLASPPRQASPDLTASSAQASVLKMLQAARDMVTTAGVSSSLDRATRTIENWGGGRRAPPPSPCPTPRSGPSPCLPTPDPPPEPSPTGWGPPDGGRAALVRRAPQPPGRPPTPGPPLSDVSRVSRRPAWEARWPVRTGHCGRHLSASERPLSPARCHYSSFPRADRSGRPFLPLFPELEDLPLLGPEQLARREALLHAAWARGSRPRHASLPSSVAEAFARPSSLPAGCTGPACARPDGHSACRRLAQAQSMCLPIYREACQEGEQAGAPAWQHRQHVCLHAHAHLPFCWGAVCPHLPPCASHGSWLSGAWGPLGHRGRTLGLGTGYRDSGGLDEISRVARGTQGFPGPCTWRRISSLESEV
Assay: NMDAR agonist assay, [3H]MK-801 binding, NMDAR2C
Format: biochemical
Settings: read-out: NMDAR2C: % maximal [3H]MK-801 binding relative to 1 mM glycine
Experimental: (nonequilibrium conditions). The baseline value was determined from the best fit curve of the DPM values modeled using the GraphPad program and the log(agonist) vs. response(three parameters) algorithm was then subtracted from all points in the dataset.
Entries annotated with measured Emax

Reference set (2 entries):
[[record]]
compound = "CC(C)CN1[C@]2(CC[C@]13CNC3=O)CNC2=O [Compound AF]"
reported_result = "> 100%"

[[record]]
compound = "O=C1NCC12CCC1(CNC1=O)N2 (single isomer, unassigned) [AJ]"
reported_result = "< 100%"


Please look at the following compound next.
Query: Requested read-out: Emax. Entry: CN1C2(CCC13CNC3=O)CNC2=O (single isomer, unassigned) [AB-2]
Response: < 100%

----------
target: NMDAR2A expressing HEK cell membranes (Homo sapiens, UniProt Q12879); construct: expressed in transfected cells; host or cells: HEK cells (membrane extract); test: NMDAR agonist assay, [3H]MK-801 binding, NMDAR2A; type: biochemical; settings: 50 μM glutamate; relative to 1 mM glycine
Sequence (Q12879 23-1464, other chains not shown): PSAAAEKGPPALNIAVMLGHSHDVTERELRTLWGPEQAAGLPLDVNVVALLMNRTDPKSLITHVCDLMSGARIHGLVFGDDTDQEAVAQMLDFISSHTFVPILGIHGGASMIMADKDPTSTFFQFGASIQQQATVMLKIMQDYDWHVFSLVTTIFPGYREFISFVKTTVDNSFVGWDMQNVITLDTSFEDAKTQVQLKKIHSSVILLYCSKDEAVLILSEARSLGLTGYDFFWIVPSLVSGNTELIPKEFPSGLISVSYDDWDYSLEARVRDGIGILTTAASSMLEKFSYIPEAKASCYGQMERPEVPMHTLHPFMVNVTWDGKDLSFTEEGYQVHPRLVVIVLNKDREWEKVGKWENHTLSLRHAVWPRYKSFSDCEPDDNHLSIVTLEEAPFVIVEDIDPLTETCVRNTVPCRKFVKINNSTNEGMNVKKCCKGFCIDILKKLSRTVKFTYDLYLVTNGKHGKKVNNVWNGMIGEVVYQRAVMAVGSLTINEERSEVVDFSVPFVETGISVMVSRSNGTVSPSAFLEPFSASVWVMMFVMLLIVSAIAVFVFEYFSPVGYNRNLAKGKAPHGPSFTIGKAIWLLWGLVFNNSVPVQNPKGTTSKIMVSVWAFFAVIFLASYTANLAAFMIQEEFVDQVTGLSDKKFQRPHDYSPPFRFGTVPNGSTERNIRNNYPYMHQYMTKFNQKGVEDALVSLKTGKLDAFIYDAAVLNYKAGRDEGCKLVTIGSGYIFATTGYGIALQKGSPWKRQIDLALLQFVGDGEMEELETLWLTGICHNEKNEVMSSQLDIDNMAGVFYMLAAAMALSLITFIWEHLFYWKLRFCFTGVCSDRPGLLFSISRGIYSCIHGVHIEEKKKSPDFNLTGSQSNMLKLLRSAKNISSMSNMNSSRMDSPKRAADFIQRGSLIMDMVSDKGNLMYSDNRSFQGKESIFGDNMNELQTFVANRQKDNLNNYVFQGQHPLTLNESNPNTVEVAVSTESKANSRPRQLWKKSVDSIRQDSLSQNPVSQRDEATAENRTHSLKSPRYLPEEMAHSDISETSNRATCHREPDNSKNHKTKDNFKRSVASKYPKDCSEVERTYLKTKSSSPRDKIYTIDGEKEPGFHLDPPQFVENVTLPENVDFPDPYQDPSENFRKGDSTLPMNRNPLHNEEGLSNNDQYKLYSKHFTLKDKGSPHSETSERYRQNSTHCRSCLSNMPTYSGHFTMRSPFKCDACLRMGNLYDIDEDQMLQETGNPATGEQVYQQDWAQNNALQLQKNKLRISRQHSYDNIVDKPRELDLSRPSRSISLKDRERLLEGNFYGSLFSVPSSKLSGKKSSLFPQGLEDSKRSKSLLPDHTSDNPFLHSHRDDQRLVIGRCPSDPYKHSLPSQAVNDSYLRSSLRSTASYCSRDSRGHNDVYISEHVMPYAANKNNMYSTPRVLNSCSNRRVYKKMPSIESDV
test.readout: NMDAR2A: % maximal [3H]MK-801 binding relative to 1 mM glycine

Reference set (4 entries):
[[record]]
molecule = "CC(C)CN1C(C(N)=O)CCC12CNC2=O (single isomer, unassigned)"
reported_result = "+ (<100%=+)"

[[record]]
molecule = "CC(C)CN1C(C(=O)N[C@H](C(N)=O)[C@@H](C)O)CCC12CNC2=O (single isomer, unassigned)"
reported_result = "+ (<100%=+)"

[[record]]
molecule = "CC(C)(C)OC(=O)N1CC2(CN(OCc3ccccc3)C2=O)CC12CN(OCc1ccccc1)C2=O (single isomer, unassigned) [AW]"
reported_result = "+ (<100%=+)"

[[record]]
molecule = "CC(C)(C)OC(=O)N1CC2(CNC2=O)CC12CNC2=O (stereo not drawn)"
reported_result = "− (−=0)"


Query: Requested read-out: NMDAR2A: % maximal [3H]MK-801 binding relative to 1 mM glycine. Entry: C[C@@H](O)[C@H](NC(=O)C1CCC2(CNC2=O)N1Cc1ccccc1)C(N)=O (single isomer, unassigned) [AN]
Response: + (<100%=+)

Query: Subsequent entry: CNC(=O)C(C(C)O)N(C)CC1CCC2(CN(OCc3ccccc3)C2=O)N1 (single isomer, unassigned)
Response: + (<100%=+)

Query: Subsequent entry: CC(C)C(=O)N1C(C(=O)N[C@H](C(N)=O)[C@@H](C)O)CCC12CNC2=O (single isomer, unassigned) [AR]
Response: − (−=0)

Query: Subsequent entry: CN1C2(CCC13CNC3=O)CNC2=O (single isomer, unassigned) [AB-1]
Response: + (<100%=+)

Query: Subsequent entry: C[C@@H](O)[C@H](NC(=O)C1CCC2(CNC2=O)N1)C(N)=O (single isomer, unassigned)
Response: + (<100%=+)

----------
assay: Plasma stability (Human); type: in vitro ADME
test.readout: Plasma (Human): percent of compound remaining after 60 minutes (%)
Numbers only; they are read as %.

Reference set (8 entries):
[[record]]
compound = "CC(C)(C)OC(=O)N1C(C(N)=O)CCC12CN(OCc1ccccc1)C2=O (single isomer, unassigned) [BH]"
reported_result = 90

[[record]]
compound = "CC(C)CN1[C@@]2(CC[C@@]13CNC3=O)CNC2=O [Compound AD]"
reported_result = 83

[[record]]
compound = "CC(=O)N1C(C(=O)N[C@H](C(N)=O)[C@@H](C)O)CCC12CNC2=O (stereo partly drawn) [AO]"
reported_result = 100

[[record]]
compound = "O=C1NCC12CCC1(CNC1=O)N2 (single isomer, unassigned) [AJ]"
reported_result = 90

[[record]]
compound = "C[C@@H](O)[C@H](NC(=O)C1CCC2(CNC2=O)N1)C(N)=O (single isomer, unassigned) [AQ-1]"
reported_result = 100

[[record]]
compound = "CC(C)CN1[C@]2(CC[C@]13CNC3=O)CNC2=O [Compound AF]"
reported_result = 99

[[record]]
compound = "O=C1NCC12CCC1(CNC1=O)N2Cc1ccccc1 (single isomer, unassigned) [AC-3]"
reported_result = 92

[[record]]
compound = "O=C1NCC12CCC1(CNC1=O)N2Cc1ccccc1 (single isomer, unassigned) [AC-2]"
reported_result = 94


Query: Requested read-out: Plasma (Human): percent of compound remaining after 60 minutes. Entry: C[C@@H](O)[C@H](NC(=O)C1CCC2(CNC2=O)N1Cc1ccccc1)C(N)=O (single isomer, unassigned) [AM]
Response: 88
